molecular target: Potassium channel subfamily K member 3 (Homo sapiens) (UniProt O14649); experiment: human KCNK3 channel inhibitors, primary screen, CHO cells, FluxOR thallium flux, B-score (AID 602410); conditions: FluxOR fluorescence, at 10 µM; active compounds read low;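 as to B-score: more negative B-score means stronger inhibition of thallium flux through KCNK3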
Sequence (O14649 whole entry, looked up): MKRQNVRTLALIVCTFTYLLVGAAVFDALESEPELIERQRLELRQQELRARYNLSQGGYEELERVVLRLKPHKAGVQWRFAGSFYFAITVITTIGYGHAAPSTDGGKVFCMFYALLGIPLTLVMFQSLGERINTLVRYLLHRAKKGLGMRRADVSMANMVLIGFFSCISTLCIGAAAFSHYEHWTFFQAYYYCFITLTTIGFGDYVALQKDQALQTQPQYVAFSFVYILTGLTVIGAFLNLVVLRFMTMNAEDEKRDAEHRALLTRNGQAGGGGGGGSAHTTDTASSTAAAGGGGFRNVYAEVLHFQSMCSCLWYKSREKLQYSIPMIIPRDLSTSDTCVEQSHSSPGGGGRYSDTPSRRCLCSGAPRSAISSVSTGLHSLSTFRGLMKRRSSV
The campaign covered roughly 340,000 compounds. About 2,800 (0.82%) were called active. The full list was thinned out, with actives kept by preference.
Property label: B-score

INSERT INTO measurements (compound, recorded_value) VALUES
  ('Oc1ccc(-c2nc3ccccc3nc2-c2ccc(O)cc2O)c(O)c1', 'inactive'),
  ('COc1cccc(C(O)c2nc3ccccc3n2C)c1 (stereo not given)', 'inactive'),
  ('COc1ccc(N2CCN(C(=O)CNC(=O)c3ccc(Br)o3)CC2)cc1', 'inactive'),
  ('CCOc1ccc(N(CC(=O)OC)S(=O)(=O)c2c(C)noc2C)cc1', 'inactive'),
  ('CCCCCCCC(=O)NC(Nc1ccccc1OC)C(Cl)(Cl)Cl (stereo not given)', 'inactive'),
  ('Cc1cc(C)c(NC(=O)C[N+](C)(C)CC(O)COc2cccc3ccccc23)c(C)c1 (stereo not given)', 'inactive'),
  ('C=C1CCC(N(O)c2cc(C)on2)C(=C)CCC2C1CC2(C)C (stereo not given)', 'inactive'),
  ('CC(=O)Nc1ccc(S(=O)(=O)NCCC(=O)N2CCN(c3ccccc3Cl)CC2)cc1', 'inactive'),
  ('O=C(CSc1nnc2n1CCCN2)c1ccccc1', 'inactive'),
  ('COc1cc(NC(=O)c2cccs2)ccc1NC(=O)c1ccccc1Cl', 'inactive'),
  ('Cc1cc(NC(=O)Nc2ccc(Cl)cc2)n(-c2ccccc2)n1', '-10.7 (active)'),
  ('CC(C)c1ccccc1OCC(O)CN(CC(O)COc1cccc2ccccc12)C(C)C (stereo not given)', '-9.21 (active)'),
  ('Cc1c(C(=O)N2CCCc3ccccc32)sc2nc(-c3ccccc3)cn12', '-9.27 (active)'),
  ('O=C1c2ccccc2C(Nc2ccc3c(c2)OCCO3)N1Cc1ccco1 (stereo not given)', 'inactive'),
  ('Cc1cc(C(=O)NCCc2ccc(Cl)cc2)n(-c2ccccc2)n1', 'inactive'),
  ('O=C(CSc1nc(Nc2ccccc2)nc(N2CCOCC2)n1)Nc1cc(Cl)ccc1O', '-11.6 (active)'),
  ('Cc1cc(C)nc(NNC2=CC(=O)CC(C)(C)C2)n1', 'inactive'),
  ('Oc1ccc(/C=N/Nc2nc(-c3ccccc3F)nc3ccccc23)c(O)c1', '-11 (active)'),
  ('CC(C)Nc1nnc(SCC(=O)/C=C2\N(C)c3ccccc3C2(C)C)s1', 'inactive'),
  ('CCc1ccc2nc3sc(C(=O)Nc4nnc(CC)s4)c(N)c3cc2c1', '-9.98 (active)'),
  ('CCSc1nsc(NC(=O)Nc2cccc(C(C)=O)c2)n1', 'inactive'),
  ('C=CCSc1nsc(NC(=O)Nc2cccc(C(C)=O)c2)n1', '-9.78 (active)'),
  ('CC(C)(C)Nc1nc(-c2ccccn2)nc2ccccc12', 'inactive'),
  ('CSc1nsc(NC(=O)Nc2ccccc2)n1', 'inactive'),
  ('Cc1cc(=O)oc2c(C)c(OC(C)C(=O)NC3CCN(Cc4ccccc4)CC3)ccc12 (stereo not given)', 'inactive'),
  ('CC(O)c1nc2ccccc2n1Cc1ccc([N+](=O)[O-])cc1 (stereo not given)', 'inactive'),
  ('Cc1ccc(NC(=O)Nc2cc(-c3ccccc3)nn2C)cc1Cl', 'inactive'),
  ('Cc1cccc(-c2c(NC(=O)c3ccco3)oc3ccc(Cl)cc3c2=O)c1', 'inactive'),
  ('COc1ccc(-c2nc(CCNC(=O)c3ccc(Br)o3)cs2)cc1', '-10.2 (active)'),
  ('O=C1C(Cl)=C(Oc2ccccc2)C(=O)c2ccccc21', 'inactive'),
  ('CC1(c2ccccc2)NC(=O)N(CC(=O)Nc2cc(Cl)ccc2N2CCOCC2)C1=O (stereo not given)', 'inactive'),
  ('CCc1nnc(NC(=O)c2cc(S(=O)(=O)N3CCCCC3)ccc2C)s1', 'inactive'),
  ('CCc1ccc(OC(C)C(=O)Nc2ccc(S(=O)(=O)Nc3cc(C)on3)cc2)cc1 (stereo not given)', 'inactive'),
  ('Cc1ccccc1NC(=O)CSc1nc2ccc(Nc3nc(N4CCOCC4)nc(N4CCOCC4)n3)cc2s1', 'inactive'),
  ('O=C(NCCc1csc(-c2ccccc2)n1)c1ccccc1F', 'inactive'),
  ('COc1cc(C(=O)NCC(=O)NCCSc2ccc(Br)cc2)cc(OC)c1OC', 'inactive'),
  ('O=[N+]([O-])c1cc2ccccc2nc1-c1ccccc1', 'inactive'),
  ('CC1CC(C)CN(c2ccc(S(=O)(=O)N3CCOCC3)cc2)C1 (stereo not given)', 'inactive'),
  ('CCCCCC(O)c1cccc(OCc2ccc3ccccc3n2)c1 (stereo not given)', '-9.81 (active)'),
  ('COc1ccccc1C(=O)NCC(=O)NCCSc1ccc(Br)cc1', 'inactive'),
  ('CS(=O)(=O)N(CC(=O)N1CCc2ccccc2C1)c1ccc(Br)cc1', 'inactive'),
  ('O=C1OC(Oc2ccc(Br)cc2)(c2ccccc2)c2ccccc21 (stereo not given)', '-10.1 (active)'),
  ('O=C(NCCc1ccccc1)c1ccc2c(c1)N(Cc1ccccc1)CCS2', '-11.6 (active)'),
  ('COc1ccc([N+](=O)[O-])cc1-c1nc2ccccc2nc1-c1ccccc1', '-12 (active)'),
  ('Cc1cccc2cc3c(N)c(C(=O)N4CCCc5ccccc54)sc3nc12', 'inactive');
